tested on: DU-145; assay: Anticancer activity against human DU145 cells after 96 hrs by SRB assay; format: functional, cell-based; details: DU-145, 96 h
pIC50: −log10 of the molar value.
Below: a set of entries, each annotated with reported pIC50.
readout: pIC50

>>> result_number("COc1cc(/C(=C\\C#N)c2csc(-c3ccccc3)n2)cc(OC)c1OC")
5.00
>>> result_number("COc1cc(C(=O)c2coc(-c3ccccc3)n2)cc(OC)c1OC")
6.53
>>> result_number("COc1cc(/C(=N/N)c2csc(-c3ccccc3)n2)cc(OC)c1OC")
5.92
>>> result_number("COc1cc(C(=O)c2csc(-c3ccc(O)cc3)n2)cc(OC)c1OC")
6.94
>>> result_number("COc1cc(/C(=N/O)c2csc(-c3ccccc3)n2)cc(OC)c1OC")
6.99
>>> result_number("CNCc1ccc(-c2nc(C(=O)c3cc(OC)c(OC)c(OC)c3)cs2)cc1")
5.00

###

tested on: DU-145; assay: Anticancer activity against human DU145 cells after 96 hrs by SRB assay; format: functional, cell-based; conditions: DU-145, 96 h
pIC50: −log10 of the molar value.
Below: a set of entries, each annotated with reported pIC50.
readout: pIC50

>>> result_number("COc1cc(C(=O)c2csc(Nc3ccc(F)cc3)n2)cc(OC)c1OC")
7.20
>>> result_number("COc1cc(C(=O)c2csc(Nc3ccccc3)n2)cc(OC)c1OC")
7.15
>>> result_number("COc1cc(C(=O)c2cc(-c3ccccc3)n[nH]2)cc(OC)c1OC")
6.84
